system: H3K4me3 mark; assay: Western blot detection of H3K4me3 in HBV-infected PHHs; format: cell-based, human; conditions: Homo sapiens, read-out: IC50 (concentration causing a 50% increase in the H3K4me3 mark), Virus 21P (GTA); PHH 8130
quantity: pIC50
Scale for pIC50: -log10 of concentration given in mol/L; no unit attached.

# example entries with known answers
>>> measured_number("CCOC(=O)c1ccnc(CNCC(=O)N(CC)CCN(C)C)c1")
9.00
>>> measured_number("CCN(CCN(C)C)C(=O)CNCc1cc(C=O)ccn1")
7.30

Q. What measured pIC50 goes with CCN(CCN(C)C)C(=O)CNCc1cc(C(=O)O)ccn1 ?
A. 6.89

* * *

tested on: HBV; assay: PHH screening protocol: HBsAg and HBeAg levels by MSD ELISA; type: cell-based, Hepatitis B Virus; conditions: Hepatitis B virus, 336 h, read-out: HBeAg EC50, virus AD38; PHH donor 8130; d 20; compound removed after 14 days of treatment
quantity: pEC50
Quick note: pEC50 means taking -log10 of the concentration in moles per liter.

Q. Please report the recorded pEC50 for CCOC(=O)c1ccnc(CNCC(=O)N(CC)CCN(C)C)c1 .
A. 6.72

* * *

test system: HBV; experiment: PHH screening protocol: HBsAg and HBeAg levels by MSD ELISA; format: cell-based, Hepatitis B Virus; conditions: Hepatitis B virus, read-out: HBeAg EC50, D 17; PHH donor 8181; virus 21p
quantity: EC50

>>> result("Nc1c(C(=O)O)ccnc1C(=O)O [Example 7, reference compound]")
"1100 nM"
>>> result("CCOC(=O)c1ccnc(CNCC(=O)N(CC)CCN(C)C)c1")
"< 20 nM"

# next molecule below
Q. For HBV, provide EC50 of CCN(CCN(C)C)C(=O)CNCc1cc(C(=O)O)ccn1 please.
A. 267 nM
